assay: anti-His antibody binders, primary screen, artefact control for SMM control protein annotation, biochemical, small-molecule microarray, 635 nm fluorescence (AID 1128); conditions: anti-His Alexa647 antibody binding, higher = more signal;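 also: score merges feature fluorescence with signal-to-noise for each printed compound spot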
Reported composite z-score values are given for each entry in this list.
Please give only the number in your answer, with no unit.

These recorded examples may help you get a feel for the data.
{"COMPOUND": "Cc1cc(C)cc(N2C(=O)CSC2c2cccc([N+](=O)[O-])c2)c1 (stereo not drawn)", "REPORTED METRIC": "composite z-score", "RESULT NUMBER": 2.27}
{"COMPOUND": "COc1cc2c(cc1OC)CN(C(=O)[C@@H]1[C@H]3C(=O)O[C@H](c4ccccc4)[C@H](c4ccccc4)N3[C@H](c3ccc(OCCO)cc3)[C@@]13C(=O)Nc1ccccc13)CC2", "REPORTED METRIC": "composite z-score", "RESULT NUMBER": 1.04}
{"COMPOUND": "COC(=O)[C@@]1(Cc2ccccc2)[C@H]2c3cc(C(=O)N(C)C)n(CCc4ccc(O)c(OC)c4)c3C[C@H]2CN1C(=O)c1ccccc1", "REPORTED METRIC": "composite z-score", "RESULT NUMBER": 0.964}

Shift focus to the following entry.
response.value for O=C1C2C=CC(C(O)c3ccc(Br)cc3)N(Nc3ccccc3F)C2C(=O)N1c1ccccc1 (stereo not drawn) (field: composite z-score) = 2.57

---

experiment: P. aeruginosa biofilm formation inhibitors, primary screen, PAO1 strain, BacTiter-Glo luminescence, LB-PBS (AID 1144); details: 12 h, higher = more signal
Activity calls are given as the source filed them. The rule behind the calls is not given here.
Reported z-score values are given for each entry in this list.

These recorded examples may help you get a feel for the data.
{"COMPOUND": "COc1cccc(/C=C/C=O)c1", "RESULT": "-0.301 (inactive)"}
{"COMPOUND": "CC1=C([C@H](O)CCc2ccccc2)[C@H](CO)[C@@H]2C(=O)N(C)C(=O)[C@@H]2C1", "RESULT": "-0.518 (inactive)"}
{"COMPOUND": "O=C1C2C=CC(C(O)c3ccc(Br)cc3)N(Nc3ccccc3F)C2C(=O)N1c1ccccc1 (stereo not given)", "RESULT": "-1.76 (inactive)"}
{"COMPOUND": "CCOC(=O)C[C@H]1[C@H](OC(=O)Cc2ccc3c(c2)OCO3)[C@@H](NC(=O)CC(C)C)c2cc(OCCCO)ccc2N1C(=O)Cc1ccc(OC)cc1", "RESULT": "0.29 (inactive)"}

Shift focus to the following entry.
response.value for CC(C)(C)OC(=O)CC[C@]1(C(=O)NCC(O)CO)N=C(c2ccc(OCCCO)cc2)O[C@H]1c1ccccc1 (stereo not given in full) (field: z-score) = -1.56 (inactive)

---

assay: adipocyte viability effects, profiling panel, cell-based, 3T3-L1 adipocytes, calcein-AM fluorescence, 48 h, basal (AID 1163); settings: 3T3-L1 adipocytes viability, higher = more signal; also: test concentration not given here
Reported z-score values are given for each entry in this list.
Please give only the number in your answer, with no unit.

These recorded examples may help you get a feel for the data.
{"MOLECULE": "C=CCC(OC(C)=O)[C@@H]1[C@@H](N(Cc2ccc(-c3ccccc3)cc2)C(=O)Cc2ccc(F)cc2)c2cc(OCCCO)ccc2N1C(=O)Cc1ccc(OC)cc1 (stereo partly drawn)", "z-score": 0.0992}
{"MOLECULE": "C=CCNC(=O)[C@H]1[C@@H]2C(=O)O[C@@H](c3ccccc3)[C@@H](c3ccccc3)N2[C@@H](c2ccc(O)cc2)[C@]12C(=O)Nc1ccc(C#CC3(O)CCCCCC3)cc12", "z-score": 0.0111}

response.value for "COc1ccc(-c2cc3c(c(CCc4ccccc4)n2)[Si](C(C)C)(C(C)C)OC3)cn1" (field: z-score) = -0.171
